Data origin: patent US11046680B1

tested-target: human APJ receptor (Homo sapiens (Human))
assay-overview: biochemical
study-conditions: [35S]GTPγS binding, CHO membranes expressing human APJ receptor; read-out: Activity hAPJ SPA EC50 IP
# strict inequality: EC50 < 50 nM yields t, everything else yields f

Some entries whose results are on file:
CCc1nc(-c2nnc(NS(=O)(=O)CCc3ncc(F)cn3)n2-c2c(OC)cccc2OC)cs1 [Example 99.0]	t
CO[C@H](c1ncc(Cl)cn1)[C@H](C)S(=O)(=O)Nc1nnc(-c2nn(C)c3c2CCCC3)n1C(C)C [Example 512.0]	f
COc1cccc(OC)c1-n1c(NS(=O)(=O)[C@H](C)Cc2ncc(F)cn2)nnc1-c1cnccn1 (single isomer, unassigned) [Example 29.0]	t
CCc1onc(-c2nnc(NS(=O)(=O)[C@@H](C)[C@H](OC)c3ncc(Cl)cn3)n2-c2c(OC)cccc2OC)c1C [Example 519.0]	t
COc1cccc(OC)c1-n1c(NS(=O)(=O)CCc2ccc(Cl)cc2)nnc1-c1cncs1 [Example 137.0]	t
COc1cccc(OC)c1-n1c(NS(=O)(=O)[C@@H]2CCCN(c3ncc(F)cn3)C2)nnc1-c1ccn(C)n1 (single isomer, unassigned) [Example 261.0]	f

# evaluate next
Input COCC(COC)n1c(NS(=O)(=O)[C@@H](C)[C@H](C)c2ncc(Cl)cn2)nnc1-c1nn(C)c2ccc(C)cc12 [Example 448.0] ; condition: EC50 strictly below 50 nM. Does it hold?
t

###

tested-target: human APJ receptor (Homo sapiens (Human), UniProt P35414)
Sequence (P35414 whole entry): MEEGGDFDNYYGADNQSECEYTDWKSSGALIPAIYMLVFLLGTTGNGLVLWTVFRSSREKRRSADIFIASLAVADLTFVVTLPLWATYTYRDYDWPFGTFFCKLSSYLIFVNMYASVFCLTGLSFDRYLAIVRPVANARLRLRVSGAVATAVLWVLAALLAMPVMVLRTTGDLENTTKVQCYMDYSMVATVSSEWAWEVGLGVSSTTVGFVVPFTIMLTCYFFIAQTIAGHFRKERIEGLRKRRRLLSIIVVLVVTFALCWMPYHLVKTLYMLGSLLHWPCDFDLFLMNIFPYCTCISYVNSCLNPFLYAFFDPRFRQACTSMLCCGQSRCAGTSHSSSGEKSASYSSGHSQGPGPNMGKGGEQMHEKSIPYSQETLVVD
assay-overview: biochemical
study-conditions: [35S]GTPγS binding, CHO membranes expressing human APJ receptor; read-out: Activity hAPJ SPA EC50 IP
Lab note: cut-off is 8 nM. Strictly less in EC50 is Fulfilled. Exactly 8 nM or more is Not fulfilled.

COc1cccc(OC)c1-n1c(NS(=O)(=O)[C@@H](C)[C@H](C)c2ncc(Cl)cn2)nnc1-c1n[nH]c2ccccc12 [Example 429.0]	Fulfilled
COc1cccc(OC)c1-n1c(NS(=O)(=O)[C@H](C)Cc2ncc(F)cn2)nnc1-c1nc(C(C)C)cs1 (single isomer, unassigned) [Example 157.0]	Not fulfilled
COc1cccc(OC)c1-n1c(NS(=O)(=O)[C@@H](C)[C@H](OC)c2ncc(C)cn2)nnc1-c1nccs1 [Example 341.0]	Fulfilled

Item COc1cccc(OC)c1-n1c(NS(=O)(=O)[C@@H](C)[C@H](OC)c2ncc(Cl)cn2)nnc1-c1c[nH]c2ncccc12 [Example 419.0] : EC50 beneath 8 nM, strictly?
Fulfilled

Determine if COc1cccc(OC)c1-n1c(NS(=O)(=O)[C@@H](C)[C@@H](OC(C)C)c2ncc(C)cn2)nnc1-c1noc(C)c1C [Example 517.0] shows EC50 strictly lower than 8 nM.
Fulfilled

###

tested-target: human APJ receptor (Homo sapiens (Human), UniProt P35414)
assay-overview: biochemical
Format: biochemical
study-conditions: [35S]GTPγS binding, CHO membranes expressing human APJ receptor; read-out: Activity hAPJ SPA EC50 IP
# log10 EC50 listing for each entry below
Recall that a logarithmic scale is used here: each number is log10 of EC50 in nM.

Solved cases below.
COc1cnc([C@@H](C)[C@H](C)S(=O)(=O)Nc2nnc(-c3cnn4c3CCC4)n2-c2c(OC)cccc2OC)cn1	-0.54
COc1cccc(OC)c1-n1c(NS(=O)(=O)[C@@H](C)[C@H](OC)c2ncc(C)cn2)nnc1-c1ccnc2ccccc12	2.71
COc1cccc(OC)c1-n1c(NS(=O)(=O)[C@H](C)Cc2ncc(F)cn2)nnc1-c1ccncn1 (single isomer, unassigned) [Example 39.0]	2.36

Notebook entry, human APJ receptor (Homo sapiens (Human), UniProt P35414) assay: log10 EC50 of COc1ccc(C(=O)O)cc1-n1c(NS(=O)(=O)CCc2ccc(Cl)cc2)nnc1-c1cccs1 = ?
2.32

Could you share what log10 EC50 was measured for COc1cccc(OC)c1-n1c(NS(=O)(=O)[C@@H](C)[C@H](OC)c2cnc(C)cn2)nnc1-c1ccn(C(F)F)n1 , tested on human APJ receptor (Homo sapiens (Human), UniProt P35414)?
0.46

Provide value of log10 EC50 for this record tested with human APJ receptor (Homo sapiens (Human), UniProt P35414): COc1cccc(OC)c1-n1c(NS(=O)(=O)[C@@H](C)[C@@H](OC(C)C)c2cnc(C)cn2)nnc1-c1cc(C)on1
1.18

# get_value(readout= log10 EC50, system= human APJ receptor (Homo sapiens (Human), UniProt P35414)) for COc1ccc(N2CCOCC2=O)cc1-n1c(NS(=O)(=O)CCc2ccc(Cl)cc2)nnc1-c1cccs1
2.48

###

Listing of recorded pEC50 by entry.
tested-target: UniProtKB P35414
assay-overview: biochemical
study-conditions: [35S]GTPγS binding, CHO membranes expressing human APJ receptor; read-out: Activity hAPJ SPA EC50 IP
Units for pEC50: none; it is -log10 of a concentration expressed in mol/L.

These recorded examples may help you get a feel for the data.
COc1cccc(OC)c1-n1c(NS(=O)(=O)[C@@H](C)[C@H](OC)c2ncc(C)cn2)nnc1-c1nn(C)c2ccccc12	9.09
COc1cccc(OC)c1-n1c(NS(=O)(=O)CCc2ccc(F)cc2C#N)nnc1-c1nc(C2CC2)cs1	8.00
COc1cnc([C@@H](C)[C@H](C)S(=O)(=O)Nc2nnc(-c3cnn4c3CCC4)n2-c2c(OC)cccc2OC)nc1	9.52

Now take the following compound into account.
Which pEC50 reading was recorded for the compound CO[C@H]1CCC[C@@H](OC)C1n1c(NS(=O)(=O)[C@@H](C)[C@H](C)c2ncc(Cl)cn2)nnc1-c1cnn2ccccc12 (stereo partly shown) ?
6.72

###

tested-target: human APJ receptor (Homo sapiens (Human))
assay-overview: biochemical
study-conditions: [35S]GTPγS binding, CHO membranes expressing human APJ receptor; read-out: Activity hAPJ SPA EC50 IP
quantity: EC50

Take a look at these entries with their results.
COc1cccc(OC)c1-n1c(NS(=O)(=O)[C@@H](C)[C@H](OC)c2ncc(C)cn2)nnc1-c1ccon1	33 nM
COc1ncnc(OC)c1-n1c(NS(=O)(=O)[C@@H](C)[C@H](C)c2ncc(C)cn2)nnc1-c1noc2ccccc12	50 nM
CCn1ccc(-c2nnc(NS(=O)(=O)[C@@H](C)[C@H](OC)c3ncc(Cl)cn3)n2-c2c(OC)cccc2OC)n1	0.47 nM

Given the entry COC[C@@H](C)n1c(NS(=O)(=O)[C@@H](C)[C@H](OC)c2ncc(Cl)cn2)nnc1-c1ccn(C)n1 , report its measured EC50.
50 nM

Which EC50 is listed for CCc1csc(-c2nnc(NS(=O)(=O)CCc3ccc(Cl)cc3)n2-c2c(OC)cccc2OC)n1 ?
> 12500 nM

Query (molecule): COc1ncnc(OC)c1-n1c(NS(=O)(=O)[C@@H](C)[C@H](C)c2ccc(Cl)cn2)nnc1-c1cnn(C)c1 ; field requested: EC50
0.66 nM

Give the measured EC50 of COc1ccccc1-n1c(NS(=O)(=O)Cc2ccc(Cl)cc2)nnc1-c1ccc(F)s1 .
> 12500 nM

EC50 for COc1cccc(OC)c1-n1c(NS(=O)(=O)[C@@H](C)Cc2ncc(C)cn2)nnc1-c1nc(C)cs1 (single isomer, unassigned) [Example 8.0] ?
0.75 nM

Any idea what its EC50 is? The molecule is COc1cccc(OC)c1-n1c(NS(=O)(=O)CCc2ccc(F)cc2C#N)nnc1-c1nc(C)cs1
1.3 nM

What value of EC50 has been recorded for this entry: O=S(=O)(CCc1ccccc1)Nc1nnc(-c2ccc(F)s2)n1-c1ccccc1OC(F)F
39 nM

Given the entry COc1cccc(OC)c1-n1c(NS(=O)(=O)CCN2C(=O)N(C)CC[C@@H]2C)nnc1-c1nc(C)cs1 , report its measured EC50.
2.9 nM

Can you look up the measured EC50 of COc1cccc(OC)c1-n1c(NS(=O)(=O)[C@H](C)Cc2ncc(F)cn2)nnc1-c1ccn(C)c1 (single isomer, unassigned) [Example 35.0] for me?
27 nM

For COc1cccc(OC)c1-n1c(NS(=O)(=O)[C@@H](C)[C@H](OC)c2cnc(C)cn2)nnc1-c1cc(C)[nH]n1 , what is its reported EC50?
4.3 nM

May I ask what EC50 has been recorded for COc1cccc(OC)c1-n1c(NS(=O)(=O)[C@H](C)Cc2ncc(F)cn2)nnc1-c1nc(C)cs1 (single isomer, unassigned) [Example 102.0] ?
4.1 nM

###

tested-target: human APJ receptor (Homo sapiens (Human), UniProt P35414)
assay-overview: biochemical
Assay type: biochemical
study-conditions: [35S]GTPγS binding, CHO membranes expressing human APJ receptor; read-out: Activity hAPJ SPA EC50 IP
pEC50: −log10 of the molar value.
# label = TRUE if pEC50 >= 8 else FALSE

Please review the following examples before continuing.
COc1cccc(OC)c1-n1c(NS(=O)(=O)[C@@H](C)[C@H](OC)c2ncc(Cl)cn2)nnc1-c1cnn2ccccc12	TRUE
COc1ccc(N2CCC2=O)cc1-n1c(NS(=O)(=O)CCc2ccc(F)cc2Br)nnc1-c1cccs1	TRUE
COCC1(n2c(NS(=O)(=O)[C@@H](C)[C@H](OC)c3ncc(Cl)cn3)nnc2-c2nn(C)c3c2CCCC3)CCC1	FALSE
O=S(=O)(CCc1ccc(Cl)cc1)Nc1nnc(-c2ccc(F)s2)n1-c1ccccc1OC(F)F	FALSE
CCO[C@H](c1ncc(C)cn1)[C@H](C)S(=O)(=O)Nc1nnc(-c2ccn(C(F)F)n2)n1-c1c(OC)cccc1OC	TRUE

In plain terms: is recorded pEC50 at least 8 for COc1cccc(OC)c1-n1c(NS(=O)(=O)CCc2ccc(Cl)cc2)nnc1-c1cncn1C ?
FALSE

Quick check, pEC50 >= 8? COc1ccc([C@@H](C)[C@H](C)S(=O)(=O)Nc2nnc(-c3ccn(C)n3)n2-c2c(OC)ncnc2OC)nc1
TRUE
